- Target of assay: biotinylated CD59 (Homo sapiens)
- Construct: Recombinant soluble human CD59 with an additional C-terminal cysteine residue
- Sequence (P13987 26-102 limits assumed): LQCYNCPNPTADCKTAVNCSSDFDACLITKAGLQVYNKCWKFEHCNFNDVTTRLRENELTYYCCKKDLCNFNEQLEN
- Assay details: mRNA-display cyclic peptide screen against CD59-biotin, NGS abundance after 6th selection round
- Recorded conditions: raw NGS counts of peptide sequence, sequencing sample Seq II, sheet R6 (6th selection round)
Recorded endpoint: Counts Seq II
One number for each entry.

Give one value of Counts Seq II per listed sequence.
1. SVGGSRSWTRG
2. YARGDASHTIW
3. CFSRRLTAGAS
4. WVYGSSTFRYQ
5. HVFGNRSFTSG
6. QFAHRISSCAS
7. FVTGNRDHTRG
8. SRNGIQFTCS

**Result**
63
24
12
13
9
13
3057
16
